- Measured target: Voltage-gated potassium channel subunit beta-2 (Rattus norvegicus) (UniProt P62483)
- Sequence (P62483 whole entry, looked up): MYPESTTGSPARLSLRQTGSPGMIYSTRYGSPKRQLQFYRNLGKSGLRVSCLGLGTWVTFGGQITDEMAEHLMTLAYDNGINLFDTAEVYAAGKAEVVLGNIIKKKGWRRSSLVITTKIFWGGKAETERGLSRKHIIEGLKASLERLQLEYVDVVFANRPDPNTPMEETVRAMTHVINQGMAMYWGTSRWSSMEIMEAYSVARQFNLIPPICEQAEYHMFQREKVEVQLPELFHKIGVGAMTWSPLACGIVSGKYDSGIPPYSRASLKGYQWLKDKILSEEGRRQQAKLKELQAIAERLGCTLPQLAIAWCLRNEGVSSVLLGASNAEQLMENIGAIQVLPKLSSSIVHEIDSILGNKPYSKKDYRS
- Test summary: enhancers of rat Kvbeta2 NADPH turnover – biochemical, NADPH fluorescence, primary screen (AID 623);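 also: fluorescence intensity change per second fitted from 20 to 320 s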
- Details: Recombinant KvBeta, NADPH fluorescence decrease slope, 10 min; at 10 µM; hits give low values
Reported NADPH fluorescence slope values follow for various molecules
In your answer, state the number alone without any accompanying words.

Note NADPH fluorescence slope for the molecule shown: COc1cccc(-c2cc(C(F)(F)F)n3nc(N)nc3n2)c1
-5e-05

Note NADPH fluorescence slope for the molecule shown: COc1ccc(N2CCN(c3oc(COc4ccccc4)nc3C#N)CC2)cc1
-9.8e-06

Note NADPH fluorescence slope for the molecule shown: CCCC(=O)Nc1ccccc1NC(=O)CN(C)S(=O)(=O)c1ccc(C)cc1
-3e-05

Note NADPH fluorescence slope for the molecule shown: CCN1CCN(Cc2c(C)[nH]c3ccc(OC)cc3c2=O)CC1
-9e-05

Note NADPH fluorescence slope for the molecule shown: COCCN(CC(=O)NC1CCCCC1)C(=O)CSc1nc2ccccc2o1
2.1e-05

Note NADPH fluorescence slope for the molecule shown: O=C(OCC(=O)c1c[nH]c2ccccc12)C1=COCCO1
-5.8e-05

Note NADPH fluorescence slope for the molecule shown: CCOC(=O)C1CCCN(C(=O)c2ccc(CS(=O)(=O)Cc3ccccc3C)o2)C1 (stereo unspecified)
4.2e-06

Note NADPH fluorescence slope for the molecule shown: Cc1nn(-c2ccc(F)cc2)c2nc(N)c(C#N)c(-c3cccs3)c12
-1.4e-05

Note NADPH fluorescence slope for the molecule shown: C=CCNC(=O)CSc1ccc(Cl)cc1
-0.000358

Note NADPH fluorescence slope for the molecule shown: CCOc1ccc2[nH]c(C)cc(=O)c2c1
1.5e-05

Note NADPH fluorescence slope for the molecule shown: O=C(O)c1c[nH]c2ccc(S(=O)(=O)N3CCN(c4ccc(F)cc4)CC3)cc2c1=O
2e-06

====

- Measured target: Voltage-gated potassium channel subunit beta-2 (Rattus norvegicus) (UniProt P62483)
- Test summary: inhibitors of rat Kvbeta2 reductase activity – biochemical, NADPH fluorescence, primary screen (AID 622);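 also: slope of raw intensity against log time taken from 70 to 1610 s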
- Details: recombinant KvBeta, 4-cyanobenzaldehyde reduction, at 10 µM
Active and inactive are the calls of the source.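 How the source made its calls: active means fluorescence slope higher than the sample average by over 3 SD (cut at about -0.22 in these data, passing the limit was not always enough); inactive means the rest.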
Returns: one label drawn from active, inactive

Some solved entries appear below for comparison.
Compound | Answer label
O=C(Cn1c(SCC(=O)N2CCCc3ccccc32)nc2ccccc21)N1CCCC1 | inactive
CCCCc1oc2ccccc2c1C(=O)c1cc(I)c(OCCN(CC)CC)c(I)c1 | inactive
Cn1c(=O)cc(SCC(=O)NCC2CCCO2)c2ccc(Cl)cc21 (centres undefined) | inactive
CCN1CCN(Cc2ccccc2NC(=O)Nc2ccc(C)cc2)CC1 | inactive
CCCc1nn(CCc2ccccn2)c(N)c1CC | inactive
O=C(Nc1cccc(F)c1)N1CC=C(n2c(=O)[nH]c3ccccc32)CC1 | inactive
CCn1c(CSc2ncccn2)nnc1SCC(=O)N1c2ccccc2CC1C (centres undefined) | inactive
CN1CCCc2cc(C#N)c(=O)[nH]c21 | active
CN(C)C(=O)Oc1ccc[n+](C)c1 | inactive
O=C(CN1C(=O)CC(c2ccccc2)=Nc2ccccc21)NCc1ccco1 | inactive

Hello, I am checking results. What call was entered for Cc1ccc(Cn2c(C)nc3c(c2=O)c2nc4ccccc4nc2n3Cc2ccco2)cc1 ?
inactive

Hello, I am checking results. What call was entered for COc1cc(NC(=O)c2cc(-n3cnnc3)ccc2Cl)cc(OC)c1 ?
inactive

====

- Test summary: endothelial E-selectin expression blockers – imaging, HUVEC, immunofluorescence, MLSMR starter and 10KST1 sets, primary screen (AID 487);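 also: signal is fraction of cell area covered by stained E-selectin grains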
- Details: HUVEC TNFalpha-induced E-selectin immunofluorescence imaging, at 2 µM; hits give high values
Quantity measured: inhibition (%)
Lab book: enter the figure in %, no units written.

Note inhibition for the molecule shown: Cc1cccc(-n2c(N)c(C(=O)N3CCN(C)CC3)sc2=S)c1
-25.5

Note inhibition for the molecule shown: COc1cc2c(cc1OC)CN(C(=O)COc1ccc(C#N)cc1)CC2
4.1

Note inhibition for the molecule shown: CC(C)(C)c1cc(C(=S)N2CCN(CCO)CC2)cc(C(C)(C)C)c1O
-150

Note inhibition for the molecule shown: O=C1NC(=O)C(c2ccccc2)(c2ccccc2)N1
23.3

Note inhibition for the molecule shown: O=C1COc2ccc(C(=O)NCc3ccco3)cc2N1
85.2

====

- Test summary: inhibitors of TNFa-induced NFkB p65 translocation, primary screen, imaging, HUVEC, MLSMR starter and 10KST1 sets (AID 438);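 also: compound added about 3h40 before a 20 min TNFalpha stimulation; signal is the nuclear over cytoplasmic p65 intensity ratio per well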
- Details: HUVEC TNFa-induced p65 nuclear translocation; at 2 µM, hits give high values, 0% TNFa-plus-vehicle, 100% no-TNFa wells
Quantity measured: inhibition (%)
Lab book: enter the figure in %, no units written.

Compound | Result units | inhibition
O=C(O)CC(C(=O)OCCOc1ccccc1)N1CCOCC1 (stereo not given) | % | 6.4

The record that follows has no inhibition shown yet.
Note inhibition for the compound shown: Cc1ccccc1NC(=O)C1CCC(C)(C(=O)O)C1(C)C (stereo not given)
3.5

====

- Test summary: loss of swimming-algae plug formation – whole organism, Chlamydomonas reinhardtii, WT vs cilia-less mutant, absorbance, 96-well, primary screen (AID 463189);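 also: 0% = wild type cc124 cells in DMSO and 100% = ciliumless bld1 mutant cells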
- Details: Chlamydomonas reinhardtii gravitaxis, OD600 absorbance, 2 days; at 10 µM; hits give high values
Reported inhibition values follow for various compounds
Lab book: enter the figure in %, no units written.

Some compounds with known inhibition results, for comparison:
Compound | Result units | inhibition
OCC1O[C@H](O)C(Cl)C(O)C1O (some centres not stated) | % | 4.68
O=c1ccn([C@@H]2O[C@H](COP(=O)(O)OP(=O)(O)O)[C@@H](O)[C@H]2O)c(=O)[nH]1 | % | 13.9
CCn1cc(C(=O)O)c(=O)c2cc3c(cc21)OCO3 | % | 1.71

Note inhibition for the compound shown: CCNC(=O)C1OC(n2cnc3c(NCc4ccccc4)ncnc32)C(O)C1O (configuration not stated)
-0.03

====

- Test summary: reduction of polyQ htt aggregates in cells – imaging, exon1htt(103Q)mCFP cells, high-content imaging, primary screen (AID 483);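 also: compound exposure lasted 3 days before fixation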
- Details: exon1htt(103Q)mCFP cell line, aggregate imaging, at 2 µM; hits give high values
Reported inhibition of aggregation values follow for various compounds
Lab book: enter the figure in %, no units written.

Some compounds with known inhibition of aggregation results, for comparison:
Compound | inhibition of aggregation, %
Cc1ccccc1NC(=O)C1CCN(c2cnccn2)CC1 | -10.2
COc1cccc2cc(C(=O)n3ccc(C)n3)c(=O)oc12 | -15.2
CCc1cc(-c2[nH]ncc2-c2ccc3c(c2)OCO3)c(O)cc1O | 26
Cc1ncoc1C(=O)Nc1ccccc1C(N)=O | 11.4
COc1cccc(NC(=O)Nc2cccs2)c1 | -5.7
O=C1CS/C(=N\C(=O)N2c3ccccc3Sc3ccccc32)N1 | 28.4
O=C1CC2CS(=O)(=O)CC2N1c1ccc(Oc2ccccc2)cc1 (stereo not given) | 5.7
Cc1cc(NC(=O)CSc2nnc(C3CC3)n2C)no1 | 15.4
COc1ccc(C(C(C(=O)c2cccs2)N2CCOCC2)N2CCOCC2)cc1OC (stereo not given) | 6.6
O=C(C1CCC1)N1CCc2cc(S(=O)(=O)N3CCc4ccccc4C3)ccc21 | 8.8

The record that follows has no inhibition of aggregation shown yet.
Note inhibition of aggregation for the compound shown: CCOc1ccc(N(C)S(=O)(=O)c2ccc3[nH]cc(C(=O)NCC4CCCO4)c(=O)c3c2)cc1 (stereo not given)
-9.8

====

- Test summary: endothelial E-selectin expression blockers – imaging, HUVEC, immunofluorescence, MLSMR starter and 10KST1 sets, primary screen (AID 487);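 also: signal is fraction of cell area covered by stained E-selectin grains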
- Details: HUVEC TNFalpha-induced E-selectin immunofluorescence imaging, at 2 µM; hits give high values
Activity calls are given as the source filed them.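 The calls were made as follows: active = visually confirmed hit in the image check and inhibition above 20%; inconclusive = visually confirmed hit but inhibition not above 20%; inactive = no visual hit in the image check.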
Reported inhibition values follow for various compounds

Some compounds with known inhibition results, for comparison:
Compound | inhibition
CCOCCCNCC(=O)N1CCN(S(=O)(=O)c2ccc(C)cc2)CC1 | -61.6% (inactive)
CCOC(=O)CCC(=O)c1c(C)oc2ccc(OC)cc12 | 46.7% (inactive)
CCOC(=O)CNC(=O)Cn1cnc2c(nnn2-c2cccc(Cl)c2)c1=O | -41.7% (inactive)

Note inhibition for the compound shown: Cc1cc(-c2nc3ncccc3o2)ccc1N
-35.5% (inactive)

Note inhibition for the compound shown: O=C(NCC1CCCO1)C1CC(c2ccc(Cl)c(Cl)c2)=NO1 (stereo unspecified)
-247% (inactive)

====

- Measured target: Voltage-gated potassium channel subunit beta-2 (Rattus norvegicus) (UniProt P62483)
- Test summary: enhancers of rat Kvbeta2 NADPH turnover – biochemical, NADPH fluorescence, primary screen (AID 623);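 also: fluorescence intensity change per second fitted from 20 to 320 s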
- Details: Recombinant KvBeta, NADPH fluorescence decrease slope, 10 min; at 10 µM; hits give low values
Quantity measured: NADPH fluorescence slope
In your answer, state the number alone without any accompanying words.

Some compounds with known NADPH fluorescence slope results, for comparison:
Compound | NADPH fluorescence slope
CCOC(=O)c1c(NC(=O)OC)sc(C(=O)N(C)C)c1C | -4.5e-05
N#CCCn1cnc2ccccc21 | -2.5e-05
CCN(C(=O)CN1CCN(c2ccccc2OC)CC1)c1c(N)n(Cc2ccccc2)c(=O)[nH]c1=O | -0.000102
O=C(NCCN1CCCC1)C1COc2ccccc2O1 (stereo unspecified) | -3.1e-05
O=C(NCc1ccc(Cl)cc1)c1ccc(COCC(F)(F)F)o1 | -0.00041
O=C(NC12CC3CC(CC(C3)C1)C2)C1CCCN1C(=O)NC1CCCCC1 (stereo unspecified) | -3.2e-05

Note NADPH fluorescence slope for the compound shown: O=C(CCn1c(=O)sc2ccccc21)NC1=NCCS1
8e-05

Note NADPH fluorescence slope for the compound shown: CCOc1ccc(S(=O)(=O)Nc2ccccc2C(=O)Nc2ccccc2N2CCOCC2)cc1
-3.2e-05

Note NADPH fluorescence slope for the compound shown: O=C(N1CCCCCC1)N1CCN(C(=O)N2CCOCC2)CC1
-1.7e-05

Note NADPH fluorescence slope for the compound shown: Cc1ccc(CNC(=O)CSc2n[nH]c(N)n2)cc1
-6.4e-05

Note NADPH fluorescence slope for the compound shown: Cn1cc(C(=O)NC2CCCCCCC2)c(=O)c2cc(S(=O)(=O)N3CCCC3)ccc21
-4.1e-05
